# PROCEDURE DETAILS: AUC (0 to 24 hrs) in Sprague-Dawley rat at 0.003 mg/kg, po qd administered via gavage measured on day 11 by LC-MS/MS analysis
# Assay type: ADME, organism-based
# Set-up: time < 24 hr, dose 0.003 mg/kg, route oral
# CONDITION PARAMETERS: in vivo
METRIC NAME: AUC at 24 h
Write your answer as a measured quantity: the number, then the unit.

So what does the record say about AUC at 24 h for O=C(O)c1cc(F)c2nc(N3C4CCC3CC(OCc3c(-c5ccccc5OC(F)(F)F)noc3C3CC3)C4)sc2c1 (stereo unspecified) ? 2 nM·h

Cited source: ChEMBL document CHEMBL4028903
